Assign Human primary T Cell Binding (FOI) to each entry below.
Test Target: T1, human CD3 expressed on cells (human, UniProt P07766 23-207; P04234 22-171; P09693 23-182)
T1 construct: whole, on cells; CD3 complex on Jurkat cells and on human primary T cells
T1 sequence (P07766 23-207, chain 1 of 3): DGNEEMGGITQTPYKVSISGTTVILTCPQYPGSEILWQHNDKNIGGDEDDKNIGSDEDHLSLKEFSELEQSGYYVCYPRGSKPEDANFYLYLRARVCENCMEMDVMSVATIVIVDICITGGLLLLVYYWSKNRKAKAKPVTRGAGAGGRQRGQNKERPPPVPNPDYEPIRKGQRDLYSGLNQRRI
T1 sequence (P04234 22-171, chain 2 of 3): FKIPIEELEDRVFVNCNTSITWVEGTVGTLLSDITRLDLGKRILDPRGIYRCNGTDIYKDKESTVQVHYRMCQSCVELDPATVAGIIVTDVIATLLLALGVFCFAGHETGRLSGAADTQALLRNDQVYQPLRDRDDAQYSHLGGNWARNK
T1 sequence (P09693 23-182, chain 3 of 3): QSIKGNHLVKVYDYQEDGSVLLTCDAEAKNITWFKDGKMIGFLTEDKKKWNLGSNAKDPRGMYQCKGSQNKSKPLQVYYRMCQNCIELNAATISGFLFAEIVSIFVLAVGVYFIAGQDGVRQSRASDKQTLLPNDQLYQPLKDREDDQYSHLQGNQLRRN
Assay Name: flow cytometry, 25 nM
Record the value in FOI, omitting the unit from your answer.

Entry under test: mAb 161 (antibody, V domains shown) VH: EVQLVESGGGLVQPGRSLRLSCAASGITFADYTMHWVRQAPGKGLEWVSGISWNSGSIDYADSVKGRFTISRDNAKKTLYLQMNRLRAEDTALYYCAKDSSGYGHYYFYYLDVWGKGTTVTVSS VL: EIVMTQSPATLSVSPGERATLSCRASQSVSNNLAWYQQKPGQAPRLLIYSTSTRATGIPARFSGSRSGTEFTLTISSLQSEDSAVYYCQQYNNWPHFGQGTRLEIK . Its Human primary T Cell Binding (FOI) was 170

Entry under test: mAb 49 (antibody, V domains shown) VH: EVQLVESGGGLVPPGGSLRLSCVASGFTLRSYTMNWVRQAPGQGLEWISYISSTSRTIYYSDSVKGRFTISRDNAKNSLYLQVNSLRDEDTALYYCAREDYYDSSGFDCWGQGTLVTVSS VL: AIRMTQSPSSFSASTGDRVTITCRASQGIFNYLAWYQQKPGKAPKLLIYSTSTLQSGVPSRFSGSGSGTDFTLTIRGLQSEDLATYYCQQYYSFPRTFGQGTKVDIK . Its Human primary T Cell Binding (FOI) was 191

Entry under test: mAb 121 (antibody, V domains shown) VH: EVQLVESGGGLVQPGRSLRLSCATSGFTFADYTMHWVRQAPGKGLEWVSGISWNSGSIDYADSVKGRFTISRDNAKKSLYLQMNSLRAEDTALYFCAKDSSGYGHYYFYYLDVWGKGTTVTVSS VL: EIVMTQSPGTLSVSPGKRATLSCRASQSVSSNLAWYQQKPGQGPRLLIYSTSTRATGIPARFSGSGSGTEFTLTISSLQSEDSAVYYCQHYNNWPHFGQGTRLEIK . Its Human primary T Cell Binding (FOI) was 101

Entry under test: mAb 94 (antibody, V domains shown) VH: QVHLVESGGGVVQPGRSLRLSCSASGFTFSGYGMHWVRQAPGKGLEWVALIYFDGRNKYYADSVKGRFTISRDNSKNTLYLQMNSLRAEDTAVYYCARGGGYNWFDPWGQGTLVTVSS VL: DIQMTQSPSSLSASVGDRVTITCRASQSISNYLNWYQQKPGKAPKLLIYLASSLQSGVPSRFSGSGSGTDFTLTINSLQPEDFASYYCQLSYSSPFTFGPGTKVDVN . Its Human primary T Cell Binding (FOI) was 174

Entry under test: mAb 165 (antibody, V domains shown) VH: EVQLVESGGGLVKTGGSLRLSCVASGFSFKKAWMNWVRQAPGKGLEWVGRIKRNTDGGTADYAAPVKGRFTLSRDDSKRTLYLQMNSLKTEDTAVYYCTTLDSSSRYVGYYYMDVWGKGTTVTVSS VL: DIQMTQSPSSVSASVGDRVIITCRASQDINNWLAWYQQKPGKVPKLLIYTASSLQSGVPSRFSGSGSGTDFTLTIGSLQPEDFATYYCQQAHSLPITFGQGTRLEIK . Its Human primary T Cell Binding (FOI) was 241
